Source of measurements: the supplement of paper PMC11208160

Assay: recombinant UMI read abundance after kanamycin selection (control-corrected) (log10(CPM+1)); higher = more efficient recombination; extreme values may be limits of the assay; sequences stand for … in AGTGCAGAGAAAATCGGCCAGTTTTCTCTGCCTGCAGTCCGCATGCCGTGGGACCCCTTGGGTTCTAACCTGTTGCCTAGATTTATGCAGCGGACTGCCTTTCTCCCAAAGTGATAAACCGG…AGGTTGGTTTCACT; site = the 11-nt donor;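 further: IS621 bridge recombinase in Escherichia coli cells against a fixed T5 target plasmid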
The label depends only on recombinant UMI read abundance (log10): condition met if it is at least 0.5, condition not met if it is smaller.

Example entries and their recorded answers appear below.
ACCCCTACATGGACCGGTTTTCCCGGTAATCCGTATTTGAA (site ACCCCTACTTT) = condition met
CTTGCCCCATGGACCGGTTTTCCCGGTAATCCGTATTTGTG (site CTTGCCCCTCA) = condition not met
TCACCTGCATGGACCGGTTTTCCCGGTAATCCGTATTTGTT (site TCACCTGCTAA) = condition not met
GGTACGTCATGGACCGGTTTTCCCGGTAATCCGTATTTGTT (site GGTACGTCTCA) = condition not met
GACGATTCATGGACCGGTTTTCCCGGTAATCCGTATTTGAT (site GACGATTCTAT) = condition met

// inclusive: recombinant UMI read abundance (log10) at least 0.5? input: AGCCTTACATGGACCGGTTTTCCCGGTAATCCGTATTTGAC (site AGCCTTACTGT)
condition met
